target_of_assay: DPP-IV (Homo sapiens)
Construct: Soluble human DPP-IV lacking the transmembrane anchor (Gly31-Pro766); Pre-Pro-alpha-mating factor leader (secretion signal) (N, cleaved yes)
Sequence (P27487 31-766): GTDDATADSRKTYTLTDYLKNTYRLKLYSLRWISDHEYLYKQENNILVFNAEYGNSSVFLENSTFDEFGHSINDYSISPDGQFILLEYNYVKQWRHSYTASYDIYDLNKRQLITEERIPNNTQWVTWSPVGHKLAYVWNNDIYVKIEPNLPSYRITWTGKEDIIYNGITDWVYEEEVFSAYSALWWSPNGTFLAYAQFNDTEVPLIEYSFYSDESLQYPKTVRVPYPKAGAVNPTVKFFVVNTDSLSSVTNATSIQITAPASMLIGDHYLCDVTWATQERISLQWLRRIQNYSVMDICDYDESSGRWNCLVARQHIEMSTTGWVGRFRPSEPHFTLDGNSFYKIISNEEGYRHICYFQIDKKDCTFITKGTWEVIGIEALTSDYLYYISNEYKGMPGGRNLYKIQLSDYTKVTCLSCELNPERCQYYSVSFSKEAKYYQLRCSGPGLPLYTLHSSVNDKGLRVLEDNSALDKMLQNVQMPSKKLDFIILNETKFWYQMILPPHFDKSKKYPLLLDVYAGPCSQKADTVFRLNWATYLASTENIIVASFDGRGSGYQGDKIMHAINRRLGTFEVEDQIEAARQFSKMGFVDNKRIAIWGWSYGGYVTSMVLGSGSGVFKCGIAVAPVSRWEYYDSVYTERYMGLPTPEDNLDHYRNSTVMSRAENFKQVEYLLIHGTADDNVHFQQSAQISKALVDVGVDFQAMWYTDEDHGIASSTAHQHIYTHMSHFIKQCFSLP
procedure_details: Inhibition of DPP-IV peptidase activity, continuous fluorimetric assay (cleavage of Gly-Pro-AMC)
pIC50: −log10 of the molar value.
# pIC50 annotations

These solved cases illustrate the format of a correct answer.
N[C@@H](Cc1cc(F)ccc1F)C1CCN(C(=O)c2ncccn2)CC1; 5.70 to 6.00
NC(Cc1cc(F)ccc1F)C1CCN(C(=O)c2ncc(F)cc2F)CC1 (centres unmarked); > 7.00
N[C@@H](Cc1cc(F)ccc1F)C1CCN(C(=O)c2ccc(C(F)(F)F)nc2)CC1 (single isomer, unassigned); 5.70 to 6.00

Bench note: what pIC50 did NC(Cc1cc(F)ccc1F)C1CCN(C(=O)N2CCC(F)(F)C2)CC1 (centres unmarked) show?
> 7.00

Give its pIC50 value. Item: NC(Cc1cccc(Cl)c1)C1CCN(c2ncccn2)CC1 (centres unmarked)
6.00 to 7.00

I have this compound here, CS(=O)(=O)Nc1cccc(C(=O)N2CCC(C(N)Cc3cccc(Cl)c3)CC2)c1 (centres unmarked) , and I need its recorded pIC50.
> 7.00

Look at this compound and give its reported pIC50. NC(Cc1cccc(Cl)c1)C1CCN(C(=O)c2cnccn2)CC1 (centres unmarked)
> 7.00

What measured pIC50 goes with N[C@@H](Cc1cc(F)ccc1F)C1CCN(C(=O)c2ccnc(C(F)(F)F)n2)CC1 (single isomer, unassigned) ?
6.00 to 7.00

* * *

target_of_assay: DPP-IV (Homo sapiens)
Construct: Soluble human DPP-IV lacking the transmembrane anchor (Gly31-Pro766); Pre-Pro-alpha-mating factor leader (secretion signal) (N, cleaved yes)
procedure_details: Inhibition of DPP-IV peptidase activity, continuous fluorimetric assay (cleavage of Gly-Pro-AMC)
Each record here notes measured IC50.

Known IC50 results, listed for orientation:
NC(Cc1cc(F)ccc1F)C1CCN(C(=O)c2cnccn2)CC1 (centres unmarked); < 0.1 µM
N[C@H](Cc1cc(F)c(F)cc1F)C1CCN(C(=O)c2ncccn2)CC1; < 0.1 µM

Write down the reported IC50 of NC(Cc1cccc(Cl)c1)C1CCN(C(=O)C2CCOC2)CC1 (centres unmarked) , test system: DPP-IV (Homo sapiens).
0.101 to 1 µM

// lookup IC50 | system=DPP-IV (Homo sapiens) | key= CC(C)(C)OC(=O)N1CCC(C(N)Cc2cccc(Cl)c2)CC1 (centres unmarked)
0.101 to 1 µM

Entry N[C@H](Cc1cc(F)cc(F)c1F)C1CCN(C(=O)c2ncccn2)CC1 , system DPP-IV (Homo sapiens): what IC50 was measured?
0.101 to 1 µM

* * *

Here, each record is paired with measured IC50 data.
target_of_assay: DPP-IV (Homo sapiens)
Construct: Soluble human DPP-IV lacking the transmembrane anchor (Gly31-Pro766); Pre-Pro-alpha-mating factor leader (secretion signal) (N, cleaved yes)
procedure_details: Inhibition of DPP-IV peptidase activity, continuous fluorimetric assay (cleavage of Gly-Pro-AMC)

Study these solved cases before continuing.
N[C@H](Cc1cc(F)ccc1F)C1CCN(C(=O)c2nccc(C(F)(F)F)n2)CC1 [Example 60]; < 100 nM
N[C@H](Cc1cc(F)ccc1F)C1CCN(C(=O)c2ccnc(C(F)(F)F)n2)CC1 [Example 49]; < 100 nM
NC(Cc1cccc(Cl)c1)C1CCN(C(=O)C2(C(F)(F)F)CC2)CC1 (stereo not drawn) [Example 16]; 101 to 1000 nM
NC(Cc1cccc(Cl)c1)C1CCN(S(=O)(=O)c2ccccc2)CC1 (stereo not drawn) [Example 35]; < 100 nM
NC(Cc1cccc(Cl)c1)C1CCN(C(=O)Cc2ccccc2)CC1 (stereo not drawn) [Example 14]; 101 to 1000 nM

Recorded IC50 of Cn1nc(C(=O)N2CCC(C(N)Cc3cccc(Cl)c3)CC2)cc1C(F)(F)F (stereo not drawn) [Example 30] , please.
< 100 nM

Please report the recorded IC50 for N[C@H](Cc1cc(F)ccc1F)C1CCN(C(=O)c2ncccn2)CC1 [Example 41] .
< 100 nM

Using the record for N[C@H](Cc1cc(F)ccc1F)C1CCN(C(=O)c2cnccn2)CC1 [Example 43] , report its IC50.
< 100 nM

Query (compound): NC(Cc1cc(F)ccc1F)C1CCN(C(=O)c2ccn(C(F)F)n2)CC1 (stereo not drawn) [Example 56] ; field requested: IC50
< 100 nM
